- TARGET UNDER TEST: SMYD3 (Homo sapiens (Human))
- Sequence (Q9H7B4 whole entry): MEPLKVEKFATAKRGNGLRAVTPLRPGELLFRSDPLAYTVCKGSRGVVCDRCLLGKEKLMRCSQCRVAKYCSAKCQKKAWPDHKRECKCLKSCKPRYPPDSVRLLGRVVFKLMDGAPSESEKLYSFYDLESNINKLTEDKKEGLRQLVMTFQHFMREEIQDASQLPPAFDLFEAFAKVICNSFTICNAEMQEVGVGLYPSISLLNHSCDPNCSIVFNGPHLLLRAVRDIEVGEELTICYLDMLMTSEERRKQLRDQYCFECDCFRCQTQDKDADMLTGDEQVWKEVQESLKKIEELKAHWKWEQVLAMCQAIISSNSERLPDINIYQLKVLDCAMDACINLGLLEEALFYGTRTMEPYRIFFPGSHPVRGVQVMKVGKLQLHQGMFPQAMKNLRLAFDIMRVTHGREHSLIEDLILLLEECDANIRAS
- ASSAY PROTOCOL: SMYD3 biochemical assay (SMYD3 enzyme assay on MEKK2 protein substrate, 3H-SAM scintillation proximity assay)
- CONDITION CONTEXT: read-out: SMYD3 Biochem IC50 (μM)*
Structures can show the parent of a compound that is named as a salt.
OUTCOME MEASURE: IC50 (µM)

These recorded examples may help you get a feel for the data.
{"COMPOUND": "O=C1Cc2cc(C(=O)NCC3CCNCC3)ccc2N1 [Cpd. No. 100, Hydrochloride]", "TARGET UNDER TEST": "SMYD3 (Homo sapiens (Human))", "VALUE UNITS": "µM", "ENDPOINT VALUE": 20}
{"COMPOUND": "Cn1nc(N)cc1C(=O)N[C@H]1CC[C@H](N)CC1 [compound 48]", "TARGET UNDER TEST": "SMYD3 (Homo sapiens (Human))", "VALUE UNITS": "µM", "ENDPOINT VALUE": 117}
{"COMPOUND": "O=C1Cc2cc(C(=O)NC[C@H]3CCNC3)ccc2N1 [compound 101]", "TARGET UNDER TEST": "SMYD3 (Homo sapiens (Human))", "VALUE UNITS": "µM", "ENDPOINT VALUE": 25.4}

a = N[C@@H](Cc1c[nH]c2ccccc12)C(=O)N1CCC(CNC(=O)c2ccc3c(c2)CC(=O)N3)CC1 [compound 103]
b = O=C(NC1CCNCC1)c1ccc2ncc(=O)[nH]c2c1 [compound 46]
## Input Smaller IC50 value, a vs b ? # answer = label of selected item
## Output a

----------
- TARGET UNDER TEST: SMYD2 (Homo sapiens (Human))
- Sequence (Q9NRG4 whole entry): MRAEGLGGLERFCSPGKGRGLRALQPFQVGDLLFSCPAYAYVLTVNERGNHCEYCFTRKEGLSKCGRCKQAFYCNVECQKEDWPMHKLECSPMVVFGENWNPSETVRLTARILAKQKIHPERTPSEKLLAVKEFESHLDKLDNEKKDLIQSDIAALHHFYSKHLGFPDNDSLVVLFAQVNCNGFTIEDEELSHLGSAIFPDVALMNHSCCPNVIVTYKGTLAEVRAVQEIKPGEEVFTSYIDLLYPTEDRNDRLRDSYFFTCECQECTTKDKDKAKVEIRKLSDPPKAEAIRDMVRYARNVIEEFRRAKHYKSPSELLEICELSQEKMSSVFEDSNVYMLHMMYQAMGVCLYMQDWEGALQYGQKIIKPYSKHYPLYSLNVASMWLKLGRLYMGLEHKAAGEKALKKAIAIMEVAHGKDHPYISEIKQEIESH
- ASSAY PROTOCOL: SMYD2 biochemical assay (SMYD2 enzyme assay on peptide substrate, 3H-SAM Flashplate)
- CONDITION CONTEXT: read-out: SMYD2 Biochem IC50; IC50 values are an average of n = 1 to n = 50
pIC50: −log10 of the molar value.
OUTCOME MEASURE: pIC50

These recorded examples may help you get a feel for the data.
{"COMPOUND": "C[C@@H](c1ccccc1)N1CC(NC(=O)c2cc(C3CC3)cnn2)C1 [compound 646]", "pIC50": 6.29}
{"COMPOUND": "Cc1nc(C)c(C(C)N2CC(NC(=O)c3cn(C4CC4)nn3)C2)s1 (centres unmarked) [compound 718]", "pIC50": 5.53}

I = CC(C)(C)c1ccc(Cn2cc(CN3CC(NC(=O)c4cn(C5CC5)nn4)C3)cn2)cc1 [compound 947]
II = COc1cccnc1C(C)N1CC(NC(=O)c2cn(C3CC3)nn2)C1 (centres unmarked) [compound 725]
III = O=C(NC1CN(Cc2ccc(OCc3ccccn3)cc2)C1)c1cn(C2CC2)nn1 [compound 849]
IV = COc1c(OCCO)cccc1C(C)N1CC(NC(=O)c2cc(C3CC3)cnn2)C1 (centres unmarked) [compound 650]
## Input Order the 4 compounds from highest to lowest pIC50. # answer = labels listed in requested order
## Output I, IV, II, III

1 = CC(c1n[nH]c2ccccc12)N1CC(NC(=O)c2cn(C3CC3)nn2)C1 (centres unmarked) [compound 761]
2 = O=C(NC1CN(C2(c3ccccc3)CC2)C1)c1cn(C2CC2)nn1 [compound 755]
## Input Parameter check: reported pIC50 is higher for which label, 1 or 2 ? # answer = label of selected item
## Output 1

a = CC(NC(=O)c1cc(C2CC2)cnn1)C1CNC1 (centres unmarked) [compound 839]
b = O=C(NC1CN(Cc2ccc(OCc3ccccn3)cc2)C1)c1cn(C2CC2)nn1 [compound 992]
## Input Smaller pIC50 value, a vs b ? # answer = label of selected item
## Output a
(a: 4.74, b: 5.57)
